Target: DDR2 (Homo sapiens)
Construct: purchased Life Technologies
Sequence (Q16832 22-855): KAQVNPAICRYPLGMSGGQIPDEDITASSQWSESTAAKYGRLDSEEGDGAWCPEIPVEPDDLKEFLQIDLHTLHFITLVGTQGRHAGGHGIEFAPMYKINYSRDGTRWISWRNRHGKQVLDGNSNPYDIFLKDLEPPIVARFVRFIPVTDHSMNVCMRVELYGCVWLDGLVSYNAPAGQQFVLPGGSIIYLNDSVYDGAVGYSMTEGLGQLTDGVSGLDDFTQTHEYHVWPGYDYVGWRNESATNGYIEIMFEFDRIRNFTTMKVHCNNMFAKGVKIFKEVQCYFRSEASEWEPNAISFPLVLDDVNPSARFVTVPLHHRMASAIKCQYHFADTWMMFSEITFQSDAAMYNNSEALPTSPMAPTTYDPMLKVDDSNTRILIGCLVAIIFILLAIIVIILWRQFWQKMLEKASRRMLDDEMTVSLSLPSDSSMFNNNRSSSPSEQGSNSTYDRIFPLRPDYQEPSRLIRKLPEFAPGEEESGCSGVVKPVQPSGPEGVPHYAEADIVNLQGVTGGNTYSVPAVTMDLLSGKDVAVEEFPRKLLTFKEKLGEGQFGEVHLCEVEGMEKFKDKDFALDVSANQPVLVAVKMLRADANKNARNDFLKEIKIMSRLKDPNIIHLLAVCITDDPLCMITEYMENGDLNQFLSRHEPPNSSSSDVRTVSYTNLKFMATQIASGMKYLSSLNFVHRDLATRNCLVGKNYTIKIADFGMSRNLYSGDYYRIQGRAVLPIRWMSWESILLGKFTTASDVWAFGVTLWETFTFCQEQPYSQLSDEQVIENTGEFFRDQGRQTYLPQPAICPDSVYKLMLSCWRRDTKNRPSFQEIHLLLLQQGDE
Assay: LanthaScreen Europium Kinase Binding assay, DDR2
Settings: 5 nM DDR2, 10 nM Kinase Tracer 178, 1 h at rt; Ki from IC50 by Cheng-Prusoff; read-out: Ki DDR2
pKi: −log10 of the molar value.
Please respond with reported pKi for every item in the list.

Required: pKi, one value per molecule below.
1. CN(C(=O)Nc1cc(C(F)F)ccn1)C1CC2(C1)CN(C(=O)c1cnn3ccn(C)c13)C2
2. O=C(CC1CC2(C1)CN(C(=O)c1cnn3ccsc13)C2)Nc1cncc(OC(F)(F)F)c1
3. COCCn1ccn2ncc(C(=O)N3CC4(CC(N(C)C(=O)Nc5cc(OC(F)(F)F)ccn5)C4)C3)c12
4. Cn1ccn2ncc(C(=O)N3CC4(CC(NC(=O)Nc5cc(C6CC6)ccn5)C4)C3)c12

### Response
1. 7.00 to 7.60
2. > 8.30
3. 7.00 to 7.60
4. 7.60 to 8.30

Record pKi for all entries; do not skip any.
1. CN(C(=O)Nc1cc(OC(F)(F)F)ccn1)C1CC2(C1)CN(C(=O)c1ccnc3[nH]ncc13)C2
2. O=C(Nc1cccc(C(F)(F)F)c1)NC1CC2(C1)CN(C(=O)c1cnc3ccccn13)C2

### Response
1. 7.60 to 8.30
2. 7.60 to 8.30
